Molecular target: T1, O8-bH
T1 chain: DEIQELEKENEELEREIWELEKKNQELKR
Assay: two-hybrid library CCNG1;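 also: natural log of median RNA to DNA barcode read ratio; higher means stronger binding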
Hi! Just check whether interaction score is below 0.6. Below gives true, equal or above gives false.

>  <Binder>
DKNQELKKKIEELKRENWELEKKIQELKR [O6-bH]

>  <Answer label>
false

$$$$
>  <Binder>
DEIQELEKENEELERKIWELKKENQELER [O15-bH]

>  <Answer label>
true

$$$$
>  <Binder>
DKNQELKKKIEELKRKNWELKKEIQELER [O13-bH]

>  <Answer label>
true

$$$$
>  <Binder>
DEIQELEKKIEELKRKNWELKKKNQELKR [O12-bH]

>  <Answer label>
false

$$$$
>  <Binder>
DENQELEKKNEELKRKIWELKKKIQELKR [O2-bH]

>  <Answer label>
true

$$$$

Lookup: Criterion: interaction score strictly below 0.6. Is it met by DEIAQLEQEIAELKQKIAELKWKNAQLKQ [4H112-bA] ?
Found: true

Lookup: A record lists DEIQELEKENEELEREIWELEKKNQELKR [O8-bH] . Is its interaction score below 0.6?
Found: false

Lookup: Given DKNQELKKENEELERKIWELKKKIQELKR [O10-bH] , is recorded interaction score strictly lower than 0.6?
Found: true

Lookup: For this binder, is interaction score lower than 0.6? DKIQELKKKNEELKREIWELEKKNQELKR [O16-bH]
Found: false
